# Tested on: Wolbachia pipientis
# assayMethodText: Anti-Wolbachia Cell-Based Screen
# Format: functional
# Parameters: scale not given: in the data most compounds retested in dose-response had high values
# cond: 5 µM
Out of some 48,000 compounds screened, about 13,000 (27%) showed an effect of 50% or more. Some of the results follow.
endpointName: Percent Effect (%)
Please give a number only; it is taken to be in %.

Field request: Percent Effect | item: COc1cc(-c2cccc3c2OC(CN)C3)cc(OC)c1OC (stereo not given)
1.955

# lookup: Percent Effect of CCN1CC(CN(C)c2cc(C)nc(N)n2)Oc2ccccc21 (stereo not given)
10.5

Which value of Percent Effect has been reported for O=C(O)Cn1ccc(=O)c2cc(Cl)ccc21 in the records?
96.7

Could you tell me which Percent Effect is on file for COc1ccccc1C(C#N)NC(=O)c1cccc2c1oc(=O)n2C (stereo not given) ?
-5.303

Fill blank: measured Percent Effect of the compound CN(Cc1ccc(C#N)cc1)Cc1noc(C(C)(C)C)n1 is ____.
1.419

Field request: Percent Effect | item: CC(C)C1CN(Cc2cnc(N(C)C)nc2)CCCN1CC1CC1 (stereo not given)
-7.489

Please report the recorded Percent Effect for CCOc1ccccc1NC(=O)NCC(C)(O)CCSC (stereo not given) .
-5.529

I am curious: what Percent Effect value has been reported for CN(CCc1nc(-c2cccc(Cl)c2)no1)CCn1cccn1 ?
14.68

Name the reported Percent Effect value associated with the compound COCCN(Cc1ccccn1)C(=O)c1ccc(=O)n(C)c1
4.944

Suppose we examine the compound CC(=O)c1cn(CCC(=O)NCCC(=O)O)c2ccccc12 ; what Percent Effect value has been reported?
11.28

Any idea what its Percent Effect is? The compound is CCOCC(=O)Nc1cc(-n2nnnc2C2CC2)ccc1F
-4.453

For the compound shown here, COc1cc(-c2n[nH]c(CN)n2)cc(OC)c1OC , give the reported Percent Effect.
105.2

Which Percent Effect reading was recorded for the compound CCC(C)(C)NC(=O)c1ccc(NC(=O)NCc2cc(C)on2)cc1 ?
-5.404

Any idea what Percent Effect was measured for COc1cc(CN)c(OC)c2c1OCO2.Cl ?
-2.392

Tell me the measured Percent Effect of CC(C)N1CCCC1c1nc(N(C)C)ncc1I (stereo not given) , please.
51.47

Need Percent Effect, item CNC(=O)c1cccc(NC(=O)CN2CCN(S(C)(=O)=O)CC2)c1
1.111

Entry CC(C)N1CCCCC1c1nc(N(C)C)ncc1I.Cl (stereo not given) : reported Percent Effect = ?
76.51

Fill in: Percent Effect of O=C(O)Cn1ccc(=O)c2ccccc21 is ___
101.5

Using the record for CCCN1CCN(Cc2cc(Cl)cc(Cl)c2)[C@H]2CS(=O)(=O)C[C@H]21 , report its Percent Effect.
3.846

What does the record list as Percent Effect for CC(C)n1ncc2c1NC(=O)CC21C(=O)Nc2c(Cl)cc(Cl)cc21 (stereo not given) ?
-10.03

Reported Percent Effect, compound Cc1cc(C)nc(N2CCCC(Cn3cc(CN(C)C)nn3)C2)n1 (stereo not given) : ____
5.215

Which Percent Effect reading was recorded for the compound COCCN(C)C[C@@H]1CN(C(=O)c2ccc(=O)n(C)c2)C[C@@H]1CO ?
59.39

So what's the measured Percent Effect for this one? COc1cccc(OCCCc2cc(C#N)ccn2)c1
-11.05

Returns the measured Percent Effect for the input compound. Input: COCc1ccccc1C(=O)NS(=O)(=O)c1ccc2c(c1)CCC(=O)N2
-32.38

// lookup Percent Effect for Cn1cnnc1-c1cncc(NCc2ccccc2Br)c1
9.077
